- ASSAY TARGET: Human topoisomerase I (Homo sapiens, UniProt P11387)
- Construct: purchased TopoGEN Inc. (Port Orange, Fla., USA)
- Sequence (P11387 1-765): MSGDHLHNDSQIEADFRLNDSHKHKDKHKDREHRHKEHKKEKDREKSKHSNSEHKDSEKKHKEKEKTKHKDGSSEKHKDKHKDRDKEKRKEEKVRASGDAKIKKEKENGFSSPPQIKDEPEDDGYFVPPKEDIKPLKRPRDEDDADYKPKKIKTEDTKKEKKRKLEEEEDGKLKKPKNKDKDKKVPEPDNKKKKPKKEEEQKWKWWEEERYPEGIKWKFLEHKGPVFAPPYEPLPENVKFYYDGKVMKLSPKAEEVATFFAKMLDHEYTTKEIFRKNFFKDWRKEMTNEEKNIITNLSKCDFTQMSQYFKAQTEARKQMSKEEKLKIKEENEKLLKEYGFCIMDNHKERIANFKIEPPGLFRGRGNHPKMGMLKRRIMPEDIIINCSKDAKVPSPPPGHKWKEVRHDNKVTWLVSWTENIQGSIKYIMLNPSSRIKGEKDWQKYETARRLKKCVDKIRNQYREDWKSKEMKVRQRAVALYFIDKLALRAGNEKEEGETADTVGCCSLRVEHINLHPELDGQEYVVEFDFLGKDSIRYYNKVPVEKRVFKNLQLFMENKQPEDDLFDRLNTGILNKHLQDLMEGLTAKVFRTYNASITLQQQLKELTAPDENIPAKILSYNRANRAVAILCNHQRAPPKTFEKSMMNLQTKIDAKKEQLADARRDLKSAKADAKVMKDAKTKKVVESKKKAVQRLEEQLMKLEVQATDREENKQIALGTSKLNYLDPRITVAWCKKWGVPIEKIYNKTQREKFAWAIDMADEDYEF
- ASSAY COMMENT: Human topoisomerase I-mediated relaxation assay
- Assay type: biochemical
- MEASUREMENT PARAMETERS: read-out: Topo I Human IC50
- Protocol: Human topoisomerase I-mediated relaxation assays were performed as per the manufacturer's instructions. Topoisomerase I (2 nM) was added to reactions containing 10 mM of Tris.HCl, pH 7.9, 150 mM NaCl, 100 μM spermidine.HCl, 5% glycerol, 0.1% BSA, 4.6 nM of […] pBR322 DNA, and inhibitor where appropriate. All in vitro reactions were incubated at 37° C. for 30 minutes. […] The gels were visualised using UV light and were documented and analysed using Syngene software.
pIC50: −log10 of the molar value.

| MOLECULE | pIC50 |
| --- | --- |
| CC(C)(C)OC(=O)NCc1nc(C(=O)O)co1 [#6] | < 3.52 |
